Data origin, for the record: paper PMC12136788

# binding signal annotations
# Study target: T1, UNK ZnF1-3 (human, UniProt Q9C0B0 31-174)
# T1 sequence: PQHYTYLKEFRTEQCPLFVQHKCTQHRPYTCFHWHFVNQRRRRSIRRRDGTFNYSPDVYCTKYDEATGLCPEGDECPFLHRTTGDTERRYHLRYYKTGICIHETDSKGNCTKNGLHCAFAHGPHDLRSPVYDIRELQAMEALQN
# Test: nsRBNS (natural sequence RNA bind-n-seq); RBNS binding buffer (assumed for nsRBNS): 25 mM Tris pH 7.5, 150 mM KCl, 3 mM MgCl2, 0.01% Triton X-100, 500 ug/ml BSA, 20 U/ml SUPERase-In, 4 C; UNK is unkempt and MSI1 is Musashi-1; names of the RNAs are library labels; protein concentration not given here; high values mean tight binding
Over roughly 24,000 sequences, “enrichment r” has its median near 0.99; the highest 2% begin near 3.7. For the sample, the highest values were picked, then their nearest neighbours and some sequences at random.
Response body: numeric value in enrichment R, unit text excluded.

Measured binding signal of chr1:130171486:130171487:+_ENSMUSG00000026353_ENSMUST00000027592|perfect_dup|FALSE|FALSE (ssRNA) RNA: GGGAGUUCUACAGUCCGACGAUCUGUGGAUGUGGCUCUUGCUGAAGUCUGUGCAGGAGGAGGAUUGCUAAAUAAAAAAUUGCUAAUUAAUCUCCAUAUGGCCAGGAAUGGAUAAAGCACCGUCCCCAGUAAUGUCCAAAUGUCCAACAGAGGAUUGAGCAUCA : 4.56

Lookup result for chr19:16212804:16212805:+_ENSG00000167460_ENST00000300933|hu_mus|hu_hu_hu_mus_False|8_88 (ssRNA) RNA: GGGAGUUCUACAGUCCGACGAUCAACAAUUCUGGAGUGAAGGAAAGCAUCAAGGAUGAACAGCAUUAAAGCUCAGUCAGAAGGCACAUGGGCAACAAUGAUCACCCCAGCAUUCUCGCUUGGAAUGUGCUUGAGAAAUCUGUUCAACAGAGGAUUGAGCAUCA ; measured binding signal: 1.57

Recorded binding signal (binder chr1:130171486:130171487:+_ENSMUSG00000026353_ENSMUST00000027592|perfect_dup|motif|central (ssRNA) RNA: GGGAGUUCUACAGUCCGACGAUCUGACGAUGUUACUCUCACUGAAGUCUGUGUGGGAGGCGGAUUACUAAACAAGAAAUUGCGGAUUAAUCUCCAGAUGGCAAGGAAUGGAUAAAGCACUGUUCCCAACAAGGUCCAAAUGUCCAACAGAGGAUUGAGCAUCA ): 3.3
